# Tested on: 521955-158-R2-J5-PDC complex spheroid viability
# Assay text: Anticancer human tumor 521955-158-R2-J5-PDC patient-derived pancreatic carcinoma cell line growth inhibition [GQUAD]; active = viability on the fitted dose curve at most 10% of control; inactive = the rest
# Recorded conditions: second compound 3.16 µM; first compound 0.316 µM
Valid outcomes are listed here; reply with one: label 1 for active, label 0 for inactive

Completed entries (count: 2):
{"Molecule": "COc1cc(C2c3cc4c(cc3C(OC3OC5COC(C)OC5C(O)C3O)C3COC(=O)C23)OCO4)cc(OC)c1O (stereo not given) + Cc1cnc(CNC(=O)c2c(=O)c3ccc(N4CCCN(C)CC4)nc3n3c2sc2ccccc23)cn1", "Class name": "label 0"}
{"Molecule": "CC(C)n1c(=O)n(C)c2cnc3cc(F)c(-c4ccc(OCCCN5CCCCC5)nc4)cc3c21 + CN(C)c1ccc(Nc2c3ccc(NC(=O)CCN4CCCC4)cc3nc3cc(NC(=O)CCN4CCCC4)ccc23)cc1", "Class name": "label 0"}

# ---- query molecule ----
For CC[C@@]1(O)C(=O)OCc2c1cc1n(c2=O)Cc2cc3c(CN(C)C)c(O)ccc3nc2-1 + Cc1cnc(CNC(=O)c2c(=O)c3ccc(N4CCCN(C)CC4)nc3n3c2sc2ccccc23)cn1 , which call appears in the assay record?
label 1

###

# Tested on: 521955-158-R2-J5-PDC complex spheroid viability
# Assay text: Anticancer human tumor 521955-158-R2-J5-PDC cell line growth inhibition [GQUAD];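 also: spheroids exposed to agents for one week before reading; 100% = DMSO vehicle control viability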
# Recorded conditions: second compound 10 µM; first compound 0.0316 µM; stronger effect = lower value
Endpoint label: viability, T/C (%)
Answer in %, number only, no unit symbol.

{"Compound": "CC1COCCN1c1cc(-c2ccnn2C)c2ccnc(-c3ccn[nH]3)c2n1 (stereo unspecified) + Cc1cnc(CNC(=O)c2c(=O)c3ccc(N4CCCN(C)CC4)nc3n3c2sc2ccccc23)cn1", "Unit abbreviation": "%", "viability, T/C": 15.4}

Find the measured viability, T/C of CC(C)n1c(=O)n(C)c2cnc3cc(F)c(-c4ccc(OCCCN5CCCCC5)nc4)cc3c21 + CN(C)c1ccc(Nc2c3ccc(NC(=O)CCN4CCCC4)cc3nc3cc(NC(=O)CCN4CCCC4)ccc23)cc1 and report it.
64

Find the measured viability, T/C of C#Cc1c(F)ccc2cc(O)cc(-c3ncc4c(N5CC6CCC(C5)N6)nc(OCC56CCCN5CC(F)C6)nc4c3F)c12 (stereo unspecified) + Cc1cnc(CNC(=O)c2c(=O)c3ccc(N4CCCN(C)CC4)nc3n3c2sc2ccccc23)cn1 and report it.
0.08

Find the measured viability, T/C of C=CC(=O)N1CCN(c2nc(=O)n(-c3c(C)ccnc3C(C)C)c3nc(-c4c(O)cccc4F)c(F)cc23)C(C)C1 (stereo unspecified) + Cc1[nH]c2ccc(F)cc2c1-c1nc2c3cccnc3c3ncccc3c2[nH]1 and report it.
98.2

Find the measured viability, T/C of CC1COCCN1c1cc(C2(S(C)(=N)=O)CC2)nc(-c2ccnc3[nH]ccc23)n1 (stereo unspecified) + Cc1cnc(CNC(=O)c2c(=O)c3ccc(N4CCCN(C)CC4)nc3n3c2sc2ccccc23)cn1 and report it.
16.2

Find the measured viability, T/C of C=CC(=O)N1CCN(c2nc(=O)n(-c3c(C)ccnc3C(C)C)c3nc(-c4c(O)cccc4F)c(F)cc23)C(C)C1 (stereo unspecified) + Cc1cnc(CNC(=O)c2c(=O)c3ccc(N4CCCN(C)CC4)nc3n3c2sc2ccccc23)cn1 and report it.
18.4

Find the measured viability, T/C of Cc1cccc(N(C)C(=O)C2C(O)CCN2c2nc(C)cc(C(F)(F)F)c2C#N)c1 (stereo unspecified) + Cc1cnc(CNC(=O)c2c(=O)c3ccc(N4CCCN(C)CC4)nc3n3c2sc2ccccc23)cn1 and report it.
20.7

Find the measured viability, T/C of Cn1ncnc1[C@H]1c2n[nH]c(=O)c3cc(F)cc(c23)N[C@@H]1c1ccc(F)cc1 + CN(C)c1ccc(Nc2c3ccc(NC(=O)CCN4CCCC4)cc3nc3cc(NC(=O)CCN4CCCC4)ccc23)cc1 and report it.
60.5

Find the measured viability, T/C of Nc1ccn(C2OC(CO)C(O)C2(F)F)c(=O)n1 (stereo unspecified) + Cc1cnc(CNC(=O)c2c(=O)c3ccc(N4CCCN(C)CC4)nc3n3c2sc2ccccc23)cn1 and report it.
17

Find the measured viability, T/C of CC[C@@]1(O)C(=O)OCc2c1cc1n(c2=O)Cc2cc3c(CN(C)C)c(O)ccc3nc2-1 + Cc1cnc(CNC(=O)c2c(=O)c3ccc(N4CCCN(C)CC4)nc3n3c2sc2ccccc23)cn1 and report it.
15.7

Find the measured viability, T/C of Cc1[nH]c2ccccc2c1CCNCc1ccc(/C=C/C(=O)NO)cc1 + Cc1[nH]c2ccc(F)cc2c1-c1nc2c3cccnc3c3ncccc3c2[nH]1 and report it.
115

###

Some compounds, each annotated with its measured viability, T/C.
# Test system: 521955-158-R2-J5-PDC complex spheroid viability
# Assay text: Anticancer human tumor 521955-158-R2-J5-PDC cell line growth inhibition [GQUAD];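 also: spheroids exposed to agents for one week before reading; 100% = DMSO vehicle control viability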
# Recorded conditions: second compound 10 µM; first compound 0.0316 µM; stronger effect = lower value
Answer in %, number only, no unit symbol.

Find the measured viability, T/C of CC[C@@]1(O)C(=O)OCc2c1cc1n(c2=O)Cc2cc3c(CN(C)C)c(O)ccc3nc2-1 + Cc1[nH]c2ccc(F)cc2c1-c1nc2c3cccnc3c3ncccc3c2[nH]1 and report it.
84.7

###

Some compounds, each annotated with its measured viability, T/C.
# System: 521955-158-R2-J5-PDC complex spheroid viability
# Assay text: Anticancer human tumor 521955-158-R2-J5-PDC cell line growth inhibition [GQUAD];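 also: spheroids exposed to agents for one week before reading; 100% = DMSO vehicle control viability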
# Recorded conditions: second compound 0.1 µM; first compound 1 µM; stronger effect = lower value
Answer in %, number only, no unit symbol.

# annotated cases, reported viability, T/C shown
{"Compound": "C=CCn1c(=O)c2cnc(Nc3ccc(N4CCN(C)CC4)cc3)nc2n1-c1cccc(C(C)(C)O)n1 + Cc1cnc(CNC(=O)c2c(=O)c3ccc(N4CCCN(C)CC4)nc3n3c2sc2ccccc23)cn1", "Endpoint label": "viability, T/C", "Unit abbreviation": "%", "Measured result": 17.6}
{"Compound": "O=c1[nH]cc(F)c(=O)[nH]1 + CN(C)c1ccc(Nc2c3ccc(NC(=O)CCN4CCCC4)cc3nc3cc(NC(=O)CCN4CCCC4)ccc23)cc1", "Endpoint label": "viability, T/C", "Unit abbreviation": "%", "Measured result": 93.4}
{"Compound": "COc1cc(C2c3cc4c(cc3C(OC3OC5COC(C)OC5C(O)C3O)C3COC(=O)C23)OCO4)cc(OC)c1O (stereo not given) + Cc1cnc(CNC(=O)c2c(=O)c3ccc(N4CCCN(C)CC4)nc3n3c2sc2ccccc23)cn1", "Endpoint label": "viability, T/C", "Unit abbreviation": "%", "Measured result": 37.8}

Find the measured viability, T/C of C#Cc1c(F)ccc2cc(O)cc(-c3ncc4c(N5CC6CCC(C5)N6)nc(OCC56CCCN5CC(F)C6)nc4c3F)c12 (stereo not given) + CN(C)c1ccc(Nc2c3ccc(NC(=O)CCN4CCCC4)cc3nc3cc(NC(=O)CCN4CCCC4)ccc23)cc1 and report it.
60.8

Find the measured viability, T/C of C=CC(=O)N1CCN(c2nc(=O)n(-c3c(C)ccnc3C(C)C)c3nc(-c4c(O)cccc4F)c(F)cc23)C(C)C1 (stereo not given) + Cc1[nH]c2ccc(F)cc2c1-c1nc2c3cccnc3c3ncccc3c2[nH]1 and report it.
102

###

# System: 521955-158-R2-J5-PDC complex spheroid viability
# Assay text: Anticancer human tumor 521955-158-R2-J5-PDC cell line growth inhibition [GQUAD];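 also: spheroids exposed to agents for one week before reading; 100% = DMSO vehicle control viability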
# Recorded conditions: second compound 3.16 µM; first compound 0.316 µM; stronger effect = lower value
Some compounds, each annotated with its measured viability, T/C.
Answer in %, number only, no unit symbol.

# annotated cases, reported viability, T/C shown
{"Compound": "Cc1cccc(N(C)C(=O)C2C(O)CCN2c2nc(C)cc(C(F)(F)F)c2C#N)c1 (stereo not given) + Cc1cnc(CNC(=O)c2c(=O)c3ccc(N4CCCN(C)CC4)nc3n3c2sc2ccccc23)cn1", "Endpoint label": "viability, T/C", "Measured result": 19.8}
{"Compound": "C=CCn1c(=O)c2cnc(Nc3ccc(N4CCN(C)CC4)cc3)nc2n1-c1cccc(C(C)(C)O)n1 + CN(C)c1ccc(Nc2c3ccc(NC(=O)CCN4CCCC4)cc3nc3cc(NC(=O)CCN4CCCC4)ccc23)cc1", "Endpoint label": "viability, T/C", "Measured result": 33.7}
{"Compound": "Nc1ccn(C2OC(CO)C(O)C2(F)F)c(=O)n1 (stereo not given) + CN(C)c1ccc(Nc2c3ccc(NC(=O)CCN4CCCC4)cc3nc3cc(NC(=O)CCN4CCCC4)ccc23)cc1", "Endpoint label": "viability, T/C", "Measured result": 43.2}
{"Compound": "CC1COCCN1c1cc(C2(S(C)(=N)=O)CC2)nc(-c2ccnc3[nH]ccc23)n1 (stereo not given) + Cc1[nH]c2ccc(F)cc2c1-c1nc2c3cccnc3c3ncccc3c2[nH]1", "Endpoint label": "viability, T/C", "Measured result": 99.1}

Find the measured viability, T/C of CCCS(=O)(=O)Nc1ccc(F)c(C(=O)c2c[nH]c3ncc(-c4ccc(Cl)cc4)cc23)c1F + CN(C)c1ccc(Nc2c3ccc(NC(=O)CCN4CCCC4)cc3nc3cc(NC(=O)CCN4CCCC4)ccc23)cc1 and report it.
61
